Test system: up to 32 different microorganisms
Assay: in vitro antibacterial activity (MIC), agar dilution on Brain Heart Infusion (BHI) agar with Steers replicator
Format: cell-based
Recorded conditions: organism code EE; unit assumed
Property measured: MIC (µg/mL)

1) CCC1OC(=O)C(C)C(=O)C(C)C(OC2OC(C)CC(N(C)C)C2O)C(C)(OCC(O)c2ccccc2)CC(C)C(=O)C(C)C2NC(=O)OC12C (single isomer, unassigned) [Example 261A] | 12.5
2) CCC1OC(=O)C(C)C(=O)C(C)C(OC2OC(C)CC(N(C)C)C2O)C(C)(OCC=Cc2cnc3ccc(OC)cc3c2)CC(C)C(=O)C(C)C2NC(=O)OC12C (centres unmarked) | 0.1
3) CCC1OC(=O)C(C)C(=O)C(C)C(OC2OC(C)CC(N(C)C)C2O)C(C)(OCC=Cc2cnc3ccc(N)cc3c2)CC(C)C(=O)C(C)C2NC(=O)OC12C (centres unmarked) | 0.1
4) CC[C@H]1OC(=O)[C@H](C)C(=O)[C@H](C)[C@@H](O[C@@H]2O[C@H](C)C[C@H](N(C)C)[C@H]2O)[C@@](C)(OCCNCCCCc2ccccc2)C[C@@H](C)C(=O)[C@H](C)[C@H]2NC(=O)O[C@@]21C | 0.2
5) CCC1OC(=O)C(C)C(=O)C(C)C(OC2OC(C)CC(N(C)C)C2O)C(C)(OCC=Cc2cccc(-c3ccccc3)c2)CC(C)C(=O)C(C)C2NC(=O)OC12C (centres unmarked) | 0.39

###

System: up to 32 different microorganisms
Assay: in vitro antibacterial activity (MIC), agar dilution on Brain Heart Infusion (BHI) agar with Steers replicator
Type: cell-based
Recorded conditions: Staphylococcus aureus CMX 553 (code FF); unit assumed
Measured MIC by item
Property measured: MIC (µg/mL)

1) CCC1OC(=O)C(C)C(=O)C(C)C(OC2OC(C)CC(N(C)C)C2O)C(C)(OCC=Cc2cnc3ccc(Cl)cc3c2)CC(C)C(=O)C(C)C2NC(=O)OC12C (stereo not drawn) [Example 191, R is —CH2CH═CH-(6-chloro-3-quinolyl)] | 0.05
2) C=CCO[C@@]1(C)C[C@@H](C)C(=O)[C@H](C)[C@H]2NC(=O)O[C@]2(C)[C@@H](CC)OC(=O)[C@H](C)C(=O)[C@H](C)[C@H]1O[C@@H]1O[C@H](C)C[C@H](N(C)C)[C@H]1O [Example 102] | 1.56
3) CCC1OC(=O)C(C)C(=O)C(C)C(OC2OC(C)CC(N(C)C)C2O)C(C)(OCC=Cc2cncc3ccccc23)CC(C)C(=O)C(C)C2NC(=O)OC12C (stereo not drawn) [Example 187, R is —CH2CH═CH-(4-isoquinolinyl)] | 0.1
4) CCC1OC(=O)C(C)C(=O)C(C)C(OC2OC(C)CC(N(C)C)C2O)C(C)(OCC=Cc2cnc3ccccc3c2)CC(C)C(=O)C(C)C2N(CCN(C)C)C(=O)OC12C (stereo not drawn) [Example 182] | 0.39
5) CC[C@H]1OC(=O)[C@H](C)C(=O)[C@H](C)[C@@H](O[C@@H]2O[C@H](C)C[C@H](N(C)C)[C@H]2O)[C@@](C)(OCC=Cc2ccc(F)cc2)C[C@@H](C)C(=O)[C@H](C)[C@@H](O)[C@]1(C)O [Example 174] | 3.1
6) C=CCOC1(C)CC(C)C(=O)C(C)C(O)C(C)(O)C(CC)OC(=O)C(C)C(=O)C(C)C1OC1OC(C)CC(N(C)C)C1O (stereo not drawn) [Example 1] | 25
7) CC[C@H]1OC(=O)[C@H](C)C(=O)[C@H](C)[C@@H](O[C@@H]2O[C@H](C)C[C@H](N(C)C)[C@H]2O)[C@@](C)(OCC=Cc2ccccc2)C[C@@H](C)C(=O)[C@H](C)[C@@H](O)[C@]1(C)O [Example 14] | 3.1
8) CC[C@H]1OC(=O)[C@H](C)C(=O)[C@H](C)[C@@H](O[C@@H]2O[C@H](C)C[C@H](N(C)C)[C@H]2O)[C@@](C)(OCCCc2ccccc2)C[C@@H](C)C(=O)[C@H](C)[C@@H](O)[C@]1(C)O [Example 15] | 6.2
9) CC[C@H]1OC(=O)[C@H](C)C(=O)[C@H](C)[C@@H](O[C@@H]2O[C@H](C)C[C@H](N(C)C)[C@H]2O)[C@@](C)(OCC=Cc2cnc3ccccc3c2)C[C@@H](C)C(=O)[C@H](C)[C@@H](O)[C@]1(C)O [Example 18] | 0.2
10) CC[C@H]1OC(=O)[C@H](C)C(=O)[C@H](C)[C@@H](O[C@@H]2O[C@H](C)C[C@H](N(C)C)[C@H]2O)[C@@](C)(OCC=Cc2ccccc2)C[C@@H](C)C(=O)[C@H](C)[C@H]2OC(=O)O[C@@]21C [Example 72] | 0.2
11) CCC1OC(=O)C(C)C(=O)C(C)C(OC2OC(C)CC(N(C)C)C2O)C(C)(OCC=Cc2ccc3c(c2)OCCO3)CC(C)C(=O)C(C)C2NC(=O)OC12C (stereo not drawn) [Example 192] | 0.1
12) CC[C@H]1OC(=O)[C@H](C)C(=O)[C@H](C)[C@@H](O[C@@H]2O[C@H](C)C[C@H](N(C)C)[C@H]2O)[C@@](C)(OCC(O)C#N)C[C@@H](C)C(=O)[C@H](C)[C@@H](O)[C@]1(C)O (stereo partly drawn) [Example 175] | 0.78
13) CCC1OC(=O)C(C)C(=O)C(C)C(OC2OC(C)CC(N(C)C)C2O)C(C)(OCC=Cc2cnc3ccc([N+](=O)[O-])cc3c2)CC(C)C(=O)C(C)C2NC(=O)OC12C (stereo not drawn) [Example 195, R is —CH2CH═CH-(6-nitroquinolyl)] | 0.05
14) CCC1OC(=O)C(C)C(=O)C(C)C(OC2OC(C)CC(N(C)C)C2O)C(C)(OCC=Cc2ccc3[nH]ccc3c2)CC(C)C(=O)C(C)C2NC(=O)OC12C (stereo not drawn) [Example 190, R is —CH2CH═CH-(5-indolyl)] | 0.02
15) CCC1OC(=O)C(C)C(=O)C(C)C(OC2OC(C)CC(N(C)C)C2O)C(C)(OCC=Cc2cccc3cccnc23)CC(C)C(=O)C(C)C2NC(=O)OC12C (stereo not drawn) [Example 189, R is —CH2CH-(8-quinolyl)] | 0.1
16) CCC1OC(=O)C(C)C(=O)C(C)C(OC2OC(C)CC(N(C)C)C2OC(C)=O)C(C)(OCC=Cc2cnc3ccccc3c2)CC(C)C(=O)C(C)C2NC(=O)OC12C (stereo not drawn) [Example 198] | 0.02
17) C=CCO[C@@]1(C)C[C@@H](C)C(=O)[C@H](C)[C@H]2OC(=O)O[C@]2(C)[C@@H](CC)OC(=O)[C@H](C)C(=O)[C@H](C)[C@H]1O[C@@H]1O[C@H](C)C[C@H](N(C)C)[C@H]1O [Example 71] | 3.1
18) CCC1OC(=O)C(C)C(=O)C(C)C(OC2OC(C)CC(N(C)C)C2O)C(C)(OCC=Cc2ccc3ccccc3c2)CC(C)C(=O)C(C)C2NC(=O)OC12C (stereo not drawn) [Example 186, R is —CH2CH═CH-(2-naphthyl)] | 0.01

###

System: up to 32 different microorganisms
Assay: in vitro antibacterial activity (MIC), agar dilution on Brain Heart Infusion (BHI) agar with Steers replicator
Assay type: cell-based
Recorded conditions: organism code VV; unit assumed
Measured MIC by item
Property measured: MIC (µg/mL)

1) C#CCOC1(C)CC(C)C(=O)C(C)C2NC(=O)OC2(C)C(CC)OC(=O)C(C)C(=O)C(C)C1OC1OC(C)CC(N(C)C)C1O (stereo not shown) | 0.78
2) CC[C@H]1OC(=O)[C@H](C)C(=O)[C@H](C)[C@@H](O[C@@H]2O[C@H](C)C[C@H](N(C)C)[C@H]2O)[C@@](C)(OCCNOCc2ccc([N+](=O)[O-])cc2)C[C@@H](C)C(=O)[C@H](C)[C@H]2NC(=O)O[C@@]21C | 0.1
3) CCC1OC(=O)C(C)C(=O)C(C)C(OC2OC(C)CC(N(C)C)C2O)C(C)(OCC(O)c2ccccc2)CC(C)C(=O)C(C)C2NC(=O)OC12C (single isomer, unassigned) [Example 261A] | 6.2
4) CCC1OC(=O)C(C)C(=O)C(C)C(OC2OC(C)CC(N(C)C)C2O)C(C)(OCC=Cc2ccc3ccccc3n2)CC(C)C(=O)C(C)C2NC(=O)OC12C (stereo not shown) | 0.2
5) CCC1OC(=O)C(C)C(=O)C(C)C(OC2OC(C)CC(N(C)C)C2O)C(C)(OCC=Cc2cnc3cccc([N+](=O)[O-])c3c2)CC(C)C(=O)C(C)C2NC(=O)OC12C (stereo not shown) | 0.02
6) CC[C@H]1OC(=O)[C@H](C)C(=O)[C@H](C)[C@@H](O[C@@H]2O[C@H](C)C[C@H](N(C)C)[C@H]2O)[C@@](C)(OCC(=O)c2ccccc2)C[C@@H](C)C(=O)[C@H](C)[C@H]2NC(=O)O[C@@]21C | 3.1
7) CCC1OC(=O)C(C)C(=O)C(C)C(OC2OC(C)CC(N(C)C)C2O)C(C)(OCC=Cc2ccc3ncc(-c4cccnc4)cc3c2)CC(C)C(=O)C(C)C2NC(=O)OC12C (stereo not shown) | 0.05
